Please provide measured α7PAM (%) @ 10 μmol/L for the entries that follow.
# SYSTEM: human α7 nAChR (Homo sapiens)
# Construct: expressed in transfected cells; host or cells: GH4C1 cells derived from rat pituitary (ATCC CCL-82.2)
# EXPERIMENTAL DETAILS: Evaluation of PAM activity with human α7 nACh receptor stably expressing cells (aequorin luminescence, FDSS7000)
# Format: cell-based
# CONDITIONS: test compound 10 μmol/L; ACh added at EC20; ratio of RLU (Max-Min) of test wells to control wells
Give bare numbers, in %.

{"COMPOUND": "Cc1ccc2c(cnn2C2CCN(C(=O)C3CCC(F)(F)CC3)CC2)c1 [Example 138]", "α7PAM (%) @ 10 μmol/L": 642}
{"COMPOUND": "CC(C)Oc1cccc2c1cnn2C1CCN(C(=O)NC2CCCCC2)CC1 [Example 180]", "α7PAM (%) @ 10 μmol/L": 274}

Please report α7PAM (%) @ 10 μmol/L for every entry that follows.
1. CCOCc1cccc2c1cnn2C1CCN(C(=O)NC2CCCCC2)CC1 [Example 167]
2. CCc1ccc2c(cnn2[C@H]2CC[C@@H](NC(=O)C3CCCCC3)CC2)c1 [Example 119]
3. COc1ccc(-c2ccc3c(cnn3C3CCN(C(=O)NC4CCC(F)(F)CC4)CC3)c2)cc1 [Example 156]
4. CCOc1c(C)ccc2c1cnn2C1CCN(C(=O)NC2CCC(F)(F)CC2)CC1 [Example 269]
5. O=C(NC1CCC(F)(F)CC1)N1CCC(n2ncc3c(OC4CC4)cccc32)CC1 [Example 250]
6. Cc1ccc2c(cnn2C2CCN(C(=O)N[C@H]3CC[C@H](OC(F)F)CC3)CC2)c1 [Example 154]
7. CCOc1c(CC)ccc2c1cnn2C1CCN(C(=O)NC2CCOCC2)CC1 [Example 274]
8. COC(C)Cc1ccc2c(cnn2C2CCN(C(=O)N[C@H]3CC[C@H](OC)CC3)CC2)c1 (stereo partly shown) [Example 247]

434
2154
358
835
1215
811
618
353

List α7PAM (%) @ 10 μmol/L for every entry below, keeping the order given.
1. N#Cc1ccc2c(cnn2C2CCN(C(=O)NC3CCC(F)(F)CC3)CC2)c1 [Example 198]
2. [2H]C([2H])([2H])Oc1c(C2CC2)ccc2c1cnn2C1CCN(C(=O)NC2CCOCC2)CC1 [Example 323]
3. COCc1cccc2c1cnn2C1CCN(C(=O)NC2CCCCC2)CC1 [Example 165]
4. COCc1c(C2CC2)ccc2c1cnn2C1CCN(C(=O)N[C@H]2CC[C@H](OC)CC2)CC1 [Example 216]
5. [2H]C([2H])([2H])Oc1nn(C2CCN(C(=O)NC3CCC(F)(F)CC3)CC2)c2ccc(C(F)(F)F)cc12 [Example 310]
6. [2H]C([2H])([2H])O[C@H]1CC[C@H](NC(=O)N2CCC(n3ncc4cc(C(F)(F)F)ccc43)CC2)CC1 [Example 178]
7. CCc1cnc2c(cnn2C2CCN(C(=O)NC3CCOCC3)CC2)c1 [Example 101]

1: 268; 2: 886; 3: 442; 4: 271; 5: 134; 6: 524; 7: 338

* * *

# SYSTEM: human α7 nAChR (Homo sapiens)
# Construct: expressed in transfected cells; host or cells: GH4C1 cells derived from rat pituitary (ATCC CCL-82.2)
# EXPERIMENTAL DETAILS: Evaluation of PAM activity with human α7 nACh receptor stably expressing cells (aequorin luminescence, FDSS7000)
# Format: cell-based
# CONDITIONS: test compound 10 μmol/L; ACh added at EC20; ratio of RLU (Max-Min) of test wells to control wells
Please use the following α7PAM (%) @ 10 μmol/L ranges when assigning a class: b0 = under 300%, b1 = from 300% up to 1000%, b2 = 1000% and over

For orientation, consider the following solved cases.
{"COMPOUND": "O=C(C1CCC(F)(F)CC1)N1CCC(n2ncc3cc(F)ccc32)CC1 [Example 134]", "CAT": "b0"}
{"COMPOUND": "COC1CCC(NC(=O)N2CCC(n3ncc4cc(F)ccc43)CC2)CC1 (stereo not drawn) [Example 29]", "CAT": "b0"}
{"COMPOUND": "O=C(NC1CCCOC1)N1CCC(n2ncc3cc(C4CC4)ccc32)CC1 (stereo not drawn) [Example 177]", "CAT": "b1"}

Any idea which band O=C(NC1CCCCC1)N1CCC(n2ncc3cc(C4CC4)ccc32)CC1 [Example 199] is in?
b2

Using the reported α7PAM (%) @ 10 μmol/L, which band applies to CCOCc1ccc2c(cnn2C2CCN(C(=O)NC3CCC(F)(F)CC3)CC2)c1 [Example 207] ?
b1

Which class does Cc1ccc2c(cnn2C2CCN(C(=O)NC3CCCC3)CC2)c1 [Example 7] fall in?
b2

Where would COCC1CCC(NC(=O)N2CCC(n3ncc4cc(C5CC5)ccc43)CC2)CC1 (stereo not drawn) [Example 221] land among the classes by reported α7PAM (%) @ 10 μmol/L?
b2

Record [2H]C([2H])([2H])Oc1ccc2c(cnn2C2CCN(C(=O)NC3CCCCC3)CC2)c1 [Example 324] — which class?
b2

Exercise: read the entry [2H]C([2H])([2H])O[C@H]1CC[C@H](NC(=O)N2CCC(n3ncc4cc(C)ccc43)CC2)CC1 [Example 295] and state which class it falls under.
b2

Categorize the following entry: Cc1ccc2c(cnn2C2CCN(C(=O)NC3CCC(F)(F)CC3)CC2)c1F [Example 222]
b1

* * *

# SYSTEM: human α7 nAChR (Homo sapiens, UniProt P36544)
# Construct: expressed in transfected cells; host or cells: GH4C1 cells derived from rat pituitary (ATCC CCL-82.2)
# Sequence (P36544 23-502): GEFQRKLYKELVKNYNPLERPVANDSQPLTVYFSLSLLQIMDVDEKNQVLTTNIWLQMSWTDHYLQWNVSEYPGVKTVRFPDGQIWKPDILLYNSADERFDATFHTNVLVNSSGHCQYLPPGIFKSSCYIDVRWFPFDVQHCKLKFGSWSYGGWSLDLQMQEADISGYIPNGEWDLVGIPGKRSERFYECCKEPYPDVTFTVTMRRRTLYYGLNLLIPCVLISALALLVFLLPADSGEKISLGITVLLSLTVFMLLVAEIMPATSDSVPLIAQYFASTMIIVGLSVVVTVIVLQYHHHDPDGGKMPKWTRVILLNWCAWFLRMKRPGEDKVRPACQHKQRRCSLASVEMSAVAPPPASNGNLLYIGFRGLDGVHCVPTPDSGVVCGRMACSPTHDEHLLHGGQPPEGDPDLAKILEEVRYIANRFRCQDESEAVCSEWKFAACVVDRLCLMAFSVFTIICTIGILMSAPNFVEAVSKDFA
# EXPERIMENTAL DETAILS: Evaluation of PAM activity with human α7 nACh receptor stably expressing cells (aequorin luminescence, FDSS7000)
# Assay type: cell-based
# CONDITIONS: test compound 10 μmol/L; ACh added at EC20; ratio of RLU (Max-Min) of test wells to control wells
Record form. Attribute: α7PAM (%) @ 10 μmol/L. Fill in for each entry.
Give bare numbers, in %.

{"MOLECULE": "COc1ccc2c(cnn2C2CCN(C(=O)NC3CCC(F)(F)CC3)CC2)c1OC", "α7PAM (%) @ 10 μmol/L": 729}
{"MOLECULE": "COC1CCC(NC(=O)N2CCC(n3nc(C)c4cc(C)ccc43)CC2)CC1 (stereo not drawn)", "α7PAM (%) @ 10 μmol/L": 1506}
{"MOLECULE": "O=C(Nc1ccc(C(F)(F)F)nc1)N1CCC(n2ncc3cc(C4CC4)ccc32)CC1", "α7PAM (%) @ 10 μmol/L": 220}

# map each molecule to its α7PAM (%) @ 10 μmol/L
1. CCOc1cccc2c1cnn2C1CCN(C(=O)N[C@H]2CC[C@@H](OC)CC2)CC1
2. [2H]C([2H])([2H])O[C@H]1CC[C@H](NC(=O)N2CCC(n3ncc4cc(OC(F)(F)F)ccc43)CC2)CC1
3. CCc1ccc2c(c1)c(OC(C)C)nn2C1CCN(C(=O)NC2CCC(OC)CC2)CC1 (stereo not drawn)
4. COC1CCC(NC(=O)N2CCC(n3ncc4c(Br)cccc43)CC2)CC1 (stereo not drawn)
5. CCc1nn(C2CCN(C(=O)NC3CCC(F)(F)CC3)CC2)c2ccc(OC)cc12
6. CCCc1ccc2c(cnn2C2CCN(C(=O)C3CCOCC3)CC2)c1

1. 200
2. 594
3. 433
4. 89
5. 358
6. 207

Hi there! I need α7PAM (%) @ 10 μmol/L for each item below, if you can.
1. O=C(NC1CCC(F)(F)CC1)N1CCC(n2ncc3cc(C4CC4)ccc32)CC1
2. COc1nn(C2CCN(C(=O)NC3CCC(F)(F)CC3)CC2)c2ccc(C)cc12
3. CC(C)c1ccc2c(cnn2C2CCN(C(=O)C3CCOCC3)CC2)c1
4. COc1nn(C2CCN(C(=O)N[C@H]3CC[C@H](OC)CC3)CC2)c2ccc(C)cc12
5. O=C(NC1CCOCC1)N1CCC(n2ncc3cc(OC(F)F)ccc32)CC1
6. CCc1nn(C2CCN(C(=O)NC3CCOCC3)CC2)c2ccc(C)cc12

1: 1780; 2: 364; 3: 159; 4: 181; 5: 413; 6: 528

Look up α7PAM (%) @ 10 μmol/L for the entries below, preserving their order.
1. O=C(NC1CCC(F)(F)CC1)N1CCC(n2ncc3ccccc32)CC1
2. Cc1c(C2CC2)ccc2c1cnn2C1CCN(C(=O)NC2CCC(F)(F)CC2)CC1

[1101, 1351]

Looking for the measured α7PAM (%) @ 10 μmol/L of Cc1cccc2c1cnn2C1CCN(C(=O)NC2CCC(F)(F)CC2)CC1 , can you help?
934

Values were extracted from patent US8765786B2.
